Tested on: Yap1 mRNA
Assay: Antisense inhibition of human Yap1 in A-431 cells by cEt gapmers, single dose (Example 3, RTS36584)
Assay type: cell-based
Conditions: Table 27; Yap1 mRNA by 3-10-3 cEt gapmers targeting SEQ ID NO.: 1, and 2; percent of untreated control
Strand notation (5' to 3'): a small letter for the sugar, then the base; units joined by * are phosphorothioate-linked, units joined directly phosphodiester-linked; [ ] holds rarer units or linkages, { } end groups; capitals alone tell only the bases. k = constrained ethyl (cEt); [5mC] = 5-methylcytosine; d = 2'-deoxy (DNA)
measure: YAP1 (% UTC)

1074509 (kT*kG*kT*dT*dA*dT*dG*dT*dT*dT*dG*dG*dG*kT*kG*kT; antisense) [compound 1074509]	5
1075149 (kG*k[5mC]*kG*dG*dA*dA*dA*dA*dA*dA*d[5mC]*dA*d[5mC]*k[5mC]*kT*kA; antisense) [compound 1075149]	50
1075949 (antisense kT*kA*kG*dG*dA*dA*d[5mC]*dA*d[5mC]*d[5mC]*dA*dA*dG*kG*kT*kT) [compound 1075949]	48
1076109 (k[5mC]*kT*kT*dA*dA*dA*dT*dG*dA*d[5mC]*d[5mC]*dA*dA*kT*kT*k[5mC]; antisense) [compound 1076109]	23
1074957 (antisense kA*kA*k[5mC]*d[5mC]*d[5mC]*dG*dG*dG*dT*dT*dT*dT*dT*kG*kT*k[5mC]) [compound 1074957]	102
